Consider the following compounds; for each one, report its GI50.
# Tested on: RPMI-8226
# Experiment Description: NCI tumour cell line growth inhibition, 48 h
Activity calls are given as the source filed them. Rule as the data show it: active = GI50 up to about 1.1 µM and inactive = higher.

>>> result("CNC(=O)N1CN(c2ccccc2)C2(CCN(CCCC(=O)c3ccc(F)cc3)CC2)C1=O")
"14.1 µM (inactive)"
>>> result("COc1ccc([C@@H]2CC(=O)N2)cc1")
"> 100 µM (inactive)"
>>> result("COc1ccc(C(OCC2OC(n3cc(C)c(=O)[nH]c3=O)CC2n2cc(Cn3cc(I)c(=O)[nH]c3=O)nn2)(c2ccccc2)c2ccccc2)cc1 (stereo unspecified)")
"15.2 µM (inactive)"
>>> result("COCC12CC(CC1=O)C1C2ON2c3ccccc3C(=O)C12c1ccccc1 (stereo unspecified)")
"40.7 µM (inactive)"

Record GI50 for all entries; do not skip any.
1. O=c1c(=O)c2c(Br)sc(Br)c2c1=O
2. COc1ccc(N[S+]([O-])c2ccc(-c3ccccc3)cc2)cc1 (stereo unspecified)
3. Brc1ccc(/N=c2/nc3ccccn3n3nc(-c4ccccc4)cc23)cc1
4. CC(C)=CCNc1ncnc2c1ncn2CCC(=O)OC(C)(C)C
5. BrC12c3ccccc3Sc3ccccc3C1(Br)c1ccccc12 (stereo unspecified)
6. S=c1[nH]c2ccc(Br)cc2c(=S)n1-c1ccccc1
7. CCC12CN(C(=O)OC)C3C(Br)C1CCC(=O)C32 (stereo unspecified)

21.6 µM (inactive)
> 100 µM (inactive)
> 100 µM (inactive)
72.3 µM (inactive)
13.5 µM (inactive)
8.26 µM (inactive)
> 100 µM (inactive)

###

Kindly state GI50 for each of the entries shown.
# Tested on: MDA-MB-435
# Experiment Description: NCI tumour cell line growth inhibition, 48 h
Activity calls are given as the source filed them. No stated cut-off is given here; in the data, active = GI50 up to about 1.1 µM and inactive = higher.

Solved cases (4 shown):
>>> result("O=C1N/C(=N/N=C/c2cccs2)N/C1=C\\c1ccco1")
"20.6 µM (inactive)"
>>> result("COc1ccc(/C=C2\\CC3C4CC=C5C[C@@H](O)CC[C@]5(C)C4CC[C@]3(C)\\C2=N\\O)cc1OC (some centres undefined)")
"23.3 µM (inactive)"
>>> result("COC(=O)[C@H](Cc1c[nH]c2ccccc12)NP(=O)(OCCC#N)OCC1OC(n2cc(C)c(=O)[nH]c2=O)CC1N=[N+]=[N-] (some centres undefined)")
"> 100 µM (inactive)"
>>> result("O=C(O)c1ccccc1/C=N/N=C1NCCCCN1")
"> 100 µM (inactive)"

Batch request: GI50 per item, same order as input.
1. NC(Cc1ccc(O)cn1)C(=O)NC(C(=O)O)c1ccccc1 (centres undefined)
2. CCOC(=O)c1c(N2CCOCC2)[nH]c(=O)c(C(c2ccc(N(C)C)cc2)c2c(O)c(C(=O)OCC)c(N3CCOCC3)[nH]c2=O)c1O
3. COc1ccccc1/C=C/c1cnccn1
4. COc1ccc2c(c1)CC[C@@H]1[C@@H]2CC[C@]2(C)C(=O)/C(=C/c3ccc(N(C)C)cc3)C[C@@H]12
5. Cc1ccc(C2=C(C#N)C(=O)N3CCN=C3S2)cc1

1: > 100 µM (inactive); 2: > 100 µM (inactive); 3: > 10 µM (inactive); 4: > 100 µM (inactive); 5: > 100 µM (inactive)

###

# System: NCI/ADR-RES
# Experiment Description: NCI tumour cell line growth inhibition, 48 h
The source made the active and inactive calls. No stated cut-off is given here; in the data, active = GI50 up to about 1.1 µM and inactive = higher.
Readout: GI50

>>> result("O=C1C=CC(=O)c2c1ccc1c3ccccc3n(Cc3ccccc3)c21")
"42.2 µM (inactive)"
>>> result("C=C1c2nc3ccccc3n2C=C(c2ccccc2)N1c1ccc(Cl)cc1")
"23.6 µM (inactive)"
>>> result("Nc1cc(S(=O)(=O)O)cc2cc(S(=O)(=O)O)c(/N=N/c3ccc(-c4ccc(/N=N/c5c(S(=O)(=O)O)cc6cc(S(=O)(=O)O)cc(N)c6c5O)cc4)cc3)c(O)c12")
"> 100 µM (inactive)"

Report GI50 for each item below.
1. O=C1Nc2ccccc2/C1=C\c1c(-c2ccccc2)nc2n1CCS2
2. O=S(=O)(O)c1ccc2cccc(/N=N\c3c(O)ccc4ccccc34)c2c1
3. N=C(N)c1ccc(/N=N\c2c(O)c(C(=O)Nc3ccccc3)cc3ccccc23)cc1
4. CC(=O)N1c2ccccc2C2=NN=C(N(C)C)SC21 (stereo not given)
5. NS(=O)(=O)c1ccc(/N=N/c2ccc(O)c(O)c2)cc1
6. O=C(O)C(Cc1ccc(O)cn1)NC(=O)C(F)(F)F (stereo not given)
7. CNC(=O)N1CN(c2ccccc2)C2(CCN(CCCC(=O)c3ccc(F)cc3)CC2)C1=O

1: 23.1 µM (inactive); 2: > 100 µM (inactive); 3: > 100 µM (inactive); 4: 2.75 µM (inactive); 5: 16.9 µM (inactive); 6: > 100 µM (inactive); 7: 17.6 µM (inactive)
